Experiment: modulators of CD8 T cell-vesicle binding, confirmation, cherry-picked primary hits, two concentrations (AID 2810);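 further: lower values mean blocking of vesicle binding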;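 on percent response (vesicle binding): ratio of mean FL2 vesicle stain of CD8+ cells to that row's control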
Details: 2C CD8+ T cell-vesicle binding, flow cytometry; at 15.4 µM; stronger effect = lower value
Out of some 1,200 compounds screened, about 65 (5%) were called active. The full list was thinned out, with actives kept by preference.
This section presents molecules with their documented percent response (vesicle binding) values.

{"molecule": "CCOc1ccc(-c2csc(NNC3=NCCCCC3)n2)cc1", "measurement.unit": "%", "percent response (vesicle binding)": 52.5}
{"molecule": "COc1ccc(NC(=O)Cc2ccc(C)c(C)c2)cc1S(=O)(=O)N1CCCCC1", "measurement.unit": "%", "percent response (vesicle binding)": 257}
{"molecule": "CCOC(=O)C1(Cc2cccc(OC)c2)CCN(C/C=C/c2ccccc2)CC1", "measurement.unit": "%", "percent response (vesicle binding)": 119}
{"molecule": "Cc1c(NC(=S)NC(=O)CCc2ccccc2)c(=O)n(-c2ccccc2)n1C", "measurement.unit": "%", "percent response (vesicle binding)": 295}
{"molecule": "CN1CCN(c2oc(-c3ccc([N+](=O)[O-])cc3)nc2C#N)CC1", "measurement.unit": "%", "percent response (vesicle binding)": 143}
{"molecule": "COc1ccccc1NS(=O)(=O)c1ccc(C)c(NC(=O)c2ccc(S(=O)(=O)N3CCCCCC3)cc2)c1", "measurement.unit": "%", "percent response (vesicle binding)": 332}
{"molecule": "NC(=S)N/N=C/c1ccccc1OCCSc1ccc(Cl)cc1", "measurement.unit": "%", "percent response (vesicle binding)": 262}
{"molecule": "COc1ccc(C2(O)CCN(CCCCOc3ccccc3)CC2)cc1", "measurement.unit": "%", "percent response (vesicle binding)": 292}
{"molecule": "CC(C)(C)C(=O)Nc1ccc2c(c1)OCCOCCOc1cc(NC(=O)C(C)(C)C)ccc1OCCOCCO2", "measurement.unit": "%", "percent response (vesicle binding)": 251}
{"molecule": "Cc1ccc(C(=O)OCC(=O)NC2CCCCC2)o1", "measurement.unit": "%", "percent response (vesicle binding)": 244}
{"molecule": "COc1ccc(C2=Nc3cc(C)ccc3OC2)cc1", "measurement.unit": "%", "percent response (vesicle binding)": 53.5}
{"molecule": "Cc1ccc(S(=O)(=O)N(C)CC(=O)Nc2nc3ccccc3s2)cc1", "measurement.unit": "%", "percent response (vesicle binding)": 351}
{"molecule": "O=C(NCC1CCCCC1)c1cccc(S(=O)(=O)N2CCCC2)c1", "measurement.unit": "%", "percent response (vesicle binding)": 104}
{"molecule": "COc1ccc(-c2cc(CNS(=O)(=O)c3ccc(NC(C)=O)cc3)on2)cc1", "measurement.unit": "%", "percent response (vesicle binding)": 18.8}
{"molecule": "c1coc(-c2nc3c4c5c(sc4ncn3n2)CCCC5)c1", "measurement.unit": "%", "percent response (vesicle binding)": 71}
{"molecule": "CCc1c(C)nc(SCC(=O)Nc2nc(-c3ccc(OC)cc3)cs2)[nH]c1=O", "measurement.unit": "%", "percent response (vesicle binding)": 192}
{"molecule": "Cc1cccc(C(=O)OCC(=O)Nc2c(C)n(C)n(-c3ccccc3)c2=O)c1", "measurement.unit": "%", "percent response (vesicle binding)": 392}
{"molecule": "Cc1ccc(NC(=S)N(CCCN2CCOCC2)Cc2cccs2)c(C)c1", "measurement.unit": "%", "percent response (vesicle binding)": 268}
{"molecule": "CCCc1nnc(NC(=O)c2ccc(S(=O)(=O)N(C)c3ccccc3OC)cc2)s1", "measurement.unit": "%", "percent response (vesicle binding)": 35.7}
{"molecule": "Cc1c(NS(=O)(=O)CC23CCC(CC2=O)C3(C)C)c(=O)n(-c2ccccc2)n1C (stereo not drawn)", "measurement.unit": "%", "percent response (vesicle binding)": 37.7}
{"molecule": "Cc1ccc2oc(=O)c(/C=C(\\O)c3sc(C)nc3C)nc2c1", "measurement.unit": "%", "percent response (vesicle binding)": 16.1}
{"molecule": "CCCN1CCN(CCCNC(=O)c2cc3c(s2)-c2ccccc2OC3)CC1", "measurement.unit": "%", "percent response (vesicle binding)": 171}
{"molecule": "COc1ccc(NC(=O)COC(=O)c2cc(Cl)ccc2O)cc1S(=O)(=O)N1CCCCC1", "measurement.unit": "%", "percent response (vesicle binding)": 366}
{"molecule": "CCOc1ccc(-c2cn(-c3ccc(OC)cc3)c(SC)n2)cc1", "measurement.unit": "%", "percent response (vesicle binding)": 155}
{"molecule": "Cc1ccc(C(=O)Nc2cccc(-c3cn4ccccc4n3)c2)cc1", "measurement.unit": "%", "percent response (vesicle binding)": 300}
{"molecule": "CCc1ccc(NC(=S)N(CCCN2CCOCC2)Cc2ccccn2)cc1", "measurement.unit": "%", "percent response (vesicle binding)": 339}
{"molecule": "COc1cc2c(-c3cc(F)cc(F)c3)c(-c3ccsc3)oc(=O)c2cc1OC", "measurement.unit": "%", "percent response (vesicle binding)": 275}
{"molecule": "CCOC(=O)c1c(C=O)c2ccccc2n1CC", "measurement.unit": "%", "percent response (vesicle binding)": 28.6}
{"molecule": "Cc1cc(C)c(/C=N/NC(N)=O)c(C)c1/C=N/NC(N)=O", "measurement.unit": "%", "percent response (vesicle binding)": 240}
{"molecule": "O=C(Nc1nc2ccccc2[nH]1)c1ccccc1[N+](=O)[O-]", "measurement.unit": "%", "percent response (vesicle binding)": 316}
{"molecule": "CN(C(=O)COC(=O)c1cccc(NS(=O)(=O)c2ccc(F)c(F)c2)c1)C1CCS(=O)(=O)C1 (stereo not drawn)", "measurement.unit": "%", "percent response (vesicle binding)": 264}
{"molecule": "O=C(Nc1nc2ccccc2n1CCN1CCOCC1)c1ccc(Cn2cc([N+](=O)[O-])cn2)o1", "measurement.unit": "%", "percent response (vesicle binding)": 145}
{"molecule": "COc1cc(CNCCc2ccc(S(N)(=O)=O)cc2)ccc1OCC(=O)N1CCCCC1", "measurement.unit": "%", "percent response (vesicle binding)": 229}
{"molecule": "COCC(C)NC(=O)CSc1nc2cc(S(=O)(=O)N3CCCCC3)ccc2o1 (stereo not drawn)", "measurement.unit": "%", "percent response (vesicle binding)": 131}
{"molecule": "CC1CC(C)(C)NC(=S)N1CC(=O)NCc1ccccc1Cl (stereo not drawn)", "measurement.unit": "%", "percent response (vesicle binding)": 506}
{"molecule": "Cc1ccc(S(=O)(=O)c2c(N)n(NC(=O)c3ccccc3C)c3nc4ccccc4nc23)cc1", "measurement.unit": "%", "percent response (vesicle binding)": 26.2}
{"molecule": "O=C(NCc1ccncc1)C(=O)NCC(c1ccco1)N1CCN(c2ccccc2F)CC1 (stereo not drawn)", "measurement.unit": "%", "percent response (vesicle binding)": 251}
{"molecule": "COc1ccccc1NS(=O)(=O)c1cc(NC(=O)CNC(=O)c2cc(C)cc(C)c2)ccc1C", "measurement.unit": "%", "percent response (vesicle binding)": 39.6}
{"molecule": "Cc1ccc(-n2ncc3c(N4CCCC(C)C4)ncnc32)c(C)c1 (stereo not drawn)", "measurement.unit": "%", "percent response (vesicle binding)": 312}
{"molecule": "Cc1nnc(NC(=O)c2ccc(S(=O)(=O)N(C)c3ccccc3)cc2)s1", "measurement.unit": "%", "percent response (vesicle binding)": 156}
{"molecule": "O=C1CCCc2sccc2N1", "measurement.unit": "%", "percent response (vesicle binding)": 33.4}
{"molecule": "CC(OC(=O)c1ccc2c(c1)C(=O)N(Cc1ccncc1)C2=O)C(=O)Nc1cccc(Cl)c1Cl (stereo not drawn)", "measurement.unit": "%", "percent response (vesicle binding)": 343}
{"molecule": "CCN(CC)CCNC(=O)CCCNC(=O)Cn1cnc2sc(C)c(C)c2c1=O", "measurement.unit": "%", "percent response (vesicle binding)": 131}

###

Assay: modulators of CD8 T cell-vesicle binding, confirmation, cherry-picked primary hits, two concentrations (AID 2810);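 further: lower values mean blocking of vesicle binding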
Conditions: 2C CD8+ T cell-vesicle binding, flow cytometry; CD8+/vesicle+ events; at 7.7 µM
The campaign covered roughly 1,200 compounds. About 65 (5%) were called active. This is one part of a sample in which actives are shown more often than they occur.
Binary label based on double positive events with cut-off 20%: below gives satisfied, not below gives not satisfied.

{"compound": "C=CCn1c(C)cc(-c2csc(NCC)n2)c1C", "category": "satisfied"}
{"compound": "COc1ccc(NCC(O)Cn2c(C)c(C)c3ccccc32)cc1 (stereo not drawn)", "category": "satisfied"}
{"compound": "COc1ccc(Cl)cc1NC(=O)/C=C/C(=O)O", "category": "satisfied"}
{"compound": "CCOC(=O)C(c1ccccc1)N1CCN(c2ccc(OC)cc2)CC1 (stereo not drawn)", "category": "satisfied"}
{"compound": "Cc1ccc(S(=O)(=O)N2CCN(CCOc3c(Cl)cccc3Cl)CC2)cc1C", "category": "not satisfied"}
{"compound": "COc1ccccc1-c1nnc(NC(=O)c2ccc(S(=O)(=O)N3CCOCC3)cc2)o1", "category": "satisfied"}
{"compound": "CCCCNC(=O)c1cnc2n(c1=O)CCS2", "category": "not satisfied"}
{"compound": "CCOC(=O)c1cnc2nc(C)nn2c1N", "category": "satisfied"}
{"compound": "O=C(COc1ccccc1)NNC(=O)c1ccc(Cl)cc1", "category": "not satisfied"}
{"compound": "O=C(COC(=O)C1(c2cccc(F)c2)CCCC1)NCc1ccc2c(c1)OCO2", "category": "satisfied"}
{"compound": "CCOc1ccccc1NC(=O)c1ccc(F)c(S(=O)(=O)N2CCC3(CC2)OCCO3)c1", "category": "satisfied"}
{"compound": "Cc1cccc(NC(=O)C2CCN(S(=O)(=O)c3c(C)[nH]c(=O)[nH]c3=O)CC2)c1", "category": "satisfied"}
{"compound": "CCOC(=O)c1c(NC(=O)CN2C(=O)NC3(CCC(C)CC3)C2=O)sc(C)c1-c1ccc(C)cc1 (stereo not drawn)", "category": "not satisfied"}
{"compound": "COc1ccc(OC)c(C(c2nnnn2CCC(C)C)N2CCN(C(=O)c3ccco3)CC2)c1 (stereo not drawn)", "category": "not satisfied"}
{"compound": "CC(C)NC(=O)NC(=O)COC(=O)c1ccc(F)cc1F", "category": "not satisfied"}
{"compound": "Cc1cccc(C(=O)OCC(=O)Nc2c(C)n(C)n(-c3ccccc3)c2=O)c1", "category": "satisfied"}
{"compound": "Cc1ccc(NC(=O)COC(=O)c2c(-c3ccccc3)noc2C)c(C)c1", "category": "satisfied"}
{"compound": "CCOc1ccc(CCNC(=O)c2cccc(-n3cnnn3)c2)cc1OCC", "category": "satisfied"}
{"compound": "O=C(c1ccc(Cl)cc1)N1CCC(C(=O)N2CCN(c3ncccn3)CC2)CC1", "category": "not satisfied"}
{"compound": "NC(=O)CCS(=O)(=O)CCN1CCN(S(=O)(=O)c2ccc3c(c2)CCC3)CC1", "category": "satisfied"}
{"compound": "CCn1nc(C(=O)NCCc2ccc3c(c2)OCCO3)c2ccccc2c1=O", "category": "satisfied"}
{"compound": "CCOc1ccccc1NC(=O)C(OC(=O)c1ccccc1O)c1ccccc1 (stereo not drawn)", "category": "satisfied"}
{"compound": "COc1ccc(NC(=S)N2CCN(c3ncccn3)CC2)c(OC)c1", "category": "not satisfied"}
{"compound": "Cc1cc2ncn(C(=O)N3CCCCCC3)c2cc1C", "category": "satisfied"}
{"compound": "CCCCCC(=O)N[C@@H](c1ccccc1)[C@@H](O)C(=O)O[C@H]1C[C@@]2(O)[C@@H](OC(=O)c3ccccc3)C3[C@](C)(C(=O)[C@H](OC(C)=O)C(=C1C)C2(C)C)[C@@H](O)C[C@H]1OC[C@@]31OC(C)=O (stereo partly drawn)", "category": "satisfied"}
{"compound": "O=C(Nc1nc(-c2ccccc2)cs1)c1ccc(N2CCOCC2)c([N+](=O)[O-])c1", "category": "satisfied"}
{"compound": "S=c1sc2c(N3CCOCC3)ncnc2n1-c1ccccc1", "category": "satisfied"}
{"compound": "O=C(CCc1ccccc1)N1CCN(CCO)CC1", "category": "not satisfied"}
{"compound": "COc1ccc(N(CC(=O)O)S(C)(=O)=O)cc1OC", "category": "not satisfied"}
{"compound": "Cc1noc(C)c1C(=O)OC(C)C(=O)N1CCc2ccccc21 (stereo not drawn)", "category": "not satisfied"}
{"compound": "COc1ccc(/C(O)=C2/C(=O)C(=O)N(Cc3cccnc3)C2c2ccco2)cc1OC (stereo not drawn)", "category": "not satisfied"}
{"compound": "O=C(O)C1CCC(Cn2c(SCc3cc(=O)n4cc(Cl)ccc4n3)nc3ccsc3c2=O)CC1 (stereo not drawn)", "category": "not satisfied"}
{"compound": "COc1ccc(-c2cccc3c2NC(=O)C3=O)cc1OC", "category": "satisfied"}
{"compound": "COC(=O)CN1C(=S)N(C)C(=O)C1CC(=O)Nc1ccccc1 (stereo not drawn)", "category": "satisfied"}
{"compound": "CCCCn1nc(C(=O)N2CCN(S(=O)(=O)c3ccccc3)CC2)c2ccccc2c1=O", "category": "satisfied"}
{"compound": "CCCC(=O)N1CCc2cc(OC)c(OC)cc2C1COc1ccccc1OC (stereo not drawn)", "category": "not satisfied"}
{"compound": "CCOc1ccc(-c2nc(N)ncc2-c2ccccc2)c(O)c1", "category": "satisfied"}
{"compound": "Cc1cccc(C(=O)OCC(=O)Nc2ccc3c(c2)OCCO3)c1O", "category": "satisfied"}
{"compound": "CCCNC(=O)c1nc2ncc(Br)cn2n1", "category": "satisfied"}
{"compound": "O=C(NCC1CCCO1)C(=O)NCC(c1ccco1)N1CCN(c2ccc(F)cc2)CC1 (stereo not drawn)", "category": "not satisfied"}
{"compound": "CCC(C)c1ccc(NC(=O)NCc2cccnc2)cc1 (stereo not drawn)", "category": "satisfied"}
{"compound": "c1coc(-c2nc3c4c5c(sc4ncn3n2)CCCC5)c1", "category": "satisfied"}
{"compound": "Cc1oc(-c2ccccc2)nc1Cn1cccc1C1=NC(c2ccccc2)CO1 (stereo not drawn)", "category": "satisfied"}

Values were extracted from PubChem BioAssay AID2810.
